// values below are reported viability at 28.5 h, 10 µM
test: in vitro; details: human, hela cells, % viability
quantity: viability at 28.5 h, 10 µM (%)

>>> print(df.to_string())
                                    compound  reported_value
 0  c1ccc(COc2ccc3[nH]c4c(c3c2)CCNC42CCN(Cc3ccccc3-c3ccccc3)C2)cc1 (stereo not shown)            73.9
 1      Cc1ccc(S(=O)(=O)NCCc2nc3ccccc3n2C)s1            81.5
 2    COc1nccnc1N1CCN(CCc2c[nH]c3ccccc23)CC1            89.2
 3  CC(C)N1CCC(C(=O)NC(=O)NCCOc2cccc3ccccc23)CC1            91.9
 4     CSc1cccc(NC(=S)N2CCC(N(C)C(C)C)CC2)c1            86.8
 5  CCCCN(C)c1c(C)nc2c(OCC3CCCCO3)cccn12 (stereo not shown)             103
 6       O=C(COc1ccc(F)cc1)Nc1ccc2[nH]ccc2c1            98.6
 7  CCOC(=O)Cc1ccc(Nc2cc(-c3ccc(N(C)C)cc3)ncn2)cc1            31.6
 8  COC(=O)[C@H]1CN(C(=O)C2CC(=O)N(C)C2)C[C@@H]1c1ccc(F)cc1 (stereo partly shown)              93
 9      Cn1cnc(S(=O)(=O)Nc2cccc3cc[nH]c23)c1              94
10  CC(=O)Nc1cccc(-c2nccnc2N2CCCCC2CCO)c1 (stereo not shown)             101
11  C=CCOc1ccc(CN(C)Cc2nc3cc(C(=O)O)ccc3c(=O)[nH]2)cc1             101
12  CN(C)c1ncc(-c2ccccc2)c(C2CCCN2Cc2ccc3ncccc3c2)n1 (stereo not shown)            77.6
13     O=C(c1nccs1)C1CCN(C(=O)Cc2ccccc2F)CC1            87.3
14  C/C(=N\NC(=O)CN(c1ccc(C)cc1)S(=O)(=O)c1ccccc1)c1ccc(Cl)cc1            93.3
15  Cc1c(C(=O)C2=C(O)C(=O)N(Cc3cccnc3)C2c2ccc(F)cc2)cnn1-c1ccccc1 (stereo not shown)             105
16  CNC(=O)c1cccc(NS(=O)(=O)c2sc3ccc(Cl)cc3c2C)c1            89.3
17  Cc1nc(CN2CCCC(NCc3ccc(C(N)=O)cc3)C2)no1 (stereo not shown)            88.3
18  Cc1cc(=O)oc2cc(OCC(=O)Nc3cccc(C(=O)O)c3)ccc12              85

meta.source: paper PMC12040169
